Target: T1, IL-18 binding protein (IL-18BP) (UniProt O95998 31-194)
T1 sequence (looked up): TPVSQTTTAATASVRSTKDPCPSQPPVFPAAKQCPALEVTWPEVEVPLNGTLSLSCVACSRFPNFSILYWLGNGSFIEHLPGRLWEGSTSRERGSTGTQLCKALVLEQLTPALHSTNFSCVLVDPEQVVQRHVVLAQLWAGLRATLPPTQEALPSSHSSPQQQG
Assay: cell-based or functional assay
Value type: Ratio (-BP/+BP), DF-1000005
Kindly provide the number alone.

Query: Check the records and state Ratio (-BP/+BP), DF-1000005 for IL-18 variant E6T, D54P, S55K, R104S (ligand) YFGKLTSKLSVIRNLNDQVLFIDQGNRPLFEDMTDSDMRDNAPRTIFIISMYKPKQPRGMAVTISVKSEKISTLSSENKIISFKEMNPPDNIKDTKSDIIFFQSSVPGHDNKMQFESSSYEGYFLASEKERDLFKLILKKEDELGDRSIMFTVQNED
Response: 0.98

Query: Check the records and state Ratio (-BP/+BP), DF-1000005 for IL-18 variant G3Q, E6H, D54N, S55I, T63S, N91V (ligand) YFQKLHSKLSVIRNLNDQVLFIDQGNRPLFEDMTDSDMRDNAPRTIFIISMYKNIQPRGMAVSISVKSEKISTLSSENKIISFKEMNPPDVIKDTKSDIIFFQRSVPGHDNKMQFESSSYEGYFLASEKERDLFKLILKKEDELGDRSIMFTVQNED
Response: 1.05

Query: Check the records and state Ratio (-BP/+BP), DF-1000005 for IL-18 variant G3Q, E6N (ligand) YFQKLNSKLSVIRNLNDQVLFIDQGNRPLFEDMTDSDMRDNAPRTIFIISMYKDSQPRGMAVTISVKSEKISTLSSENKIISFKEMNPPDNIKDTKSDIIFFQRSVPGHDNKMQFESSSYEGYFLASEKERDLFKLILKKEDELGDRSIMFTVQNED
Response: 1.04

Query: Check the records and state Ratio (-BP/+BP), DF-1000005 for IL-18 variant G3Y, E6S, K53S, D54W, S55L, T63S, N91I (ligand) YFYKLSSKLSVIRNLNDQVLFIDQGNRPLFEDMTDSDMRDNAPRTIFIISMYSWLQPRGMAVSISVKSEKISTLSSENKIISFKEMNPPDIIKDTKSDIIFFQRSVPGHDNKMQFESSSYEGYFLASEKERDLFKLILKKEDELGDRSIMFTVQNED
Response: 1.09

Query: Check the records and state Ratio (-BP/+BP), DF-1000005 for IL-18 variant G3Q, E6H, S7Y, D23A, R27S, D54S, S55R, T63F, N91F, R104Q (ligand) YFQKLHYKLSVIRNLNDQVLFIAQGNSPLFEDMTDSDMRDNAPRTIFIISMYKSRQPRGMAVFISVKSEKISTLSSENKIISFKEMNPPDFIKDTKSDIIFFQQSVPGHDNKMQFESSSYEGYFLASEKERDLFKLILKKEDELGDRSIMFTVQNED
Response: 1.12

Query: Check the records and state Ratio (-BP/+BP), DF-1000005 for IL-18 variant G3Y, E6N, N91Y, R104S (ligand) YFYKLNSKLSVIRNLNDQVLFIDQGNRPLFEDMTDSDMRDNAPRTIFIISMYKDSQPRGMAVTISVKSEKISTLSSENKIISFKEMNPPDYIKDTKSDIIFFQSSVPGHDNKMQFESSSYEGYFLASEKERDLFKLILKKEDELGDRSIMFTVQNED
Response: 1.05

Query: Check the records and state Ratio (-BP/+BP), DF-1000005 for IL-18 variant G3L, E6S, D54T, T63S, N91Y, R104Q (ligand) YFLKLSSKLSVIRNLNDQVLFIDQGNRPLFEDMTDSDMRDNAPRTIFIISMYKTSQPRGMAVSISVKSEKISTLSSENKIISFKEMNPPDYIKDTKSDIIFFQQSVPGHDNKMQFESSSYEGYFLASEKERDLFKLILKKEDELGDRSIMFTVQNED
Response: 1.02

meta.source: patent US20240182536A1
